- experimentalProtocol: chemical genetic growth profiling, strain panel (AID 1159580);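 note: tested at 20 µM; growth read once vehicle control cultures reached saturation at 30 °C; 1 = growth at the plate median or of vehicle wells; lower values mean less growth of the strain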
- experimentalSetup: S. cerevisiae deletion strains, growth OD, locus YGL078C, strain dbp3, hits give low values
Screen size: about 5,500 compounds; about 2,000 (36%) were called active. Not shown: some 18% with an inconclusive outcome. Some of the results follow.
assayMetric: normalized growth

>>> observedmeasurement("CC1Cc2ccccc2N1NC(=O)c1ccc(Cl)c(S(N)(=O)=O)c1 (stereo not given)")
"1 (inactive)"
>>> observedmeasurement("COc1cc(O)c2c(=O)cc(-c3ccc(O)cc3)oc2c1")
"1.03 (inactive)"
>>> observedmeasurement("O=C(/C=C(\\O)c1ccccc1)c1ccccc1O")
"0.986 (inactive)"
>>> observedmeasurement("CC1(C)Oc2ccc3ccc(=O)oc3c2CC1O (stereo not given)")
"0.999 (inactive)"
>>> observedmeasurement("COP(N)(=O)SC (stereo not given)")
"1.01 (inactive)"
>>> observedmeasurement("CO[C@@H]1C[C@H](O[C@H]2CC[C@]3(C)C4CC[C@]5(C)[C@@H](C6=CC(=O)OC6)CC[C@]5(O)[C@@H]4CC[C@]3(O)C2)O[C@H](C)[C@@H]1O (stereo not given in full)")
"0.96 (inactive)"
>>> observedmeasurement("Nc1ccc(S(=O)(=O)Nc2ncccn2)cc1")
"1 (inactive)"
>>> observedmeasurement("NC(=O)c1ccccc1O")
"1 (inactive)"
>>> observedmeasurement("COc1ccc(-c2cc(=O)c3c(O)cc(O)cc3o2)cc1")
"0.978 (inactive)"
>>> observedmeasurement("NC(=O)c1cc([N+](=O)[O-])cc([N+](=O)[O-])c1")
"0.995 (inactive)"
>>> observedmeasurement("NCC(O)CC(=O)O (stereo not given)")
"0.994 (inactive)"
>>> observedmeasurement("NCCCN")
"0.999 (inactive)"
>>> observedmeasurement("CO[C@@H]1[C@@H](OC(N)=O)[C@@H](O)[C@H](Oc2ccc3c(O)c(NC(=O)c4ccc(O)c(CC=C(C)C)c4)c(=O)oc3c2C)OC1(C)C")
"0.954 (inactive)"
>>> observedmeasurement("CC1(C)C(=O)CC[C@@]2(C)C1C[C@@H](O)[C@@]1(C)C3=CC(=O)O[C@@H](c4ccoc4)[C@]3(C)CCC21 (stereo not given in full)")
"1.03 (inactive)"
>>> observedmeasurement("CC1(C)S[C@@H]2[C@H](NC(=O)C(C(=O)O)c3ccccc3)C(=O)N2[C@H]1C(=O)O (stereo not given in full)")
"0.993 (inactive)"
>>> observedmeasurement("CC1CCCC(C)N1NC(=O)c1ccc(Cl)c(S(N)(=O)=O)c1 (stereo not given)")
"0.997 (inactive)"
>>> observedmeasurement("NC[C@@H]1O[C@H](O[C@@H]2[C@@H](CO)OC(O[C@@H]3[C@@H](O)[C@H](N)C[C@H](N)[C@H]3O[C@H]3O[C@H](CO)[C@@H](O)[C@H](O)[C@H]3N)[C@@H]2O)[C@H](N)[C@@H](O)[C@@H]1O (stereo not given in full)")
"0.995 (inactive)"
>>> observedmeasurement("C[C@@H]1CC[C@@]23CCC4(C)[C@@](C=CC5[C@@]6(C)CCC(=O)C(C)(C)C6CC[C@]54C)(OC2=O)C3[C@H]1C (stereo not given in full)")
"1.01 (inactive)"
>>> observedmeasurement("COC1CC(O[C@H]2CC[C@]3(C=O)C4CC[C@]5(C)C(C6=CC(=O)OC6)CC[C@]5(O)C4CC[C@]3(O)C2)OC(C)C1O (stereo not given in full)")
"0.992 (inactive)"
>>> observedmeasurement("COc1nc(NC(C)C)nc(NC(C)C)n1")
"1.01 (inactive)"
>>> observedmeasurement("O=C(O)CN(CCN(CC(=O)O)CC(=O)O)CC(=O)O")
"0.985 (inactive)"
>>> observedmeasurement("CC[C@H]1CN2CCC1C[C@@H]2[C@@H](O)c1ccnc2ccc(OC)cc12 (stereo not given in full)")
"1.01 (inactive)"
>>> observedmeasurement("Cc1ccccc1N1C(=O)c2cc(S(N)(=O)=O)c(Cl)cc2NC1C (stereo not given)")
"0.981 (inactive)"
>>> observedmeasurement("COC(=O)[C@H]1[C@H]2C[C@H]3c4[nH]c5cc(OC)ccc5c4CCN3C[C@H]2C[C@@H](OC(=O)c2cc(OC)c(OC)c(OC)c2)[C@@H]1OC")
"1.02 (inactive)"
>>> observedmeasurement("COC(=O)NC(=S)Nc1ccccc1NC(=S)NC(=O)OC")
"0.982 (inactive)"
>>> observedmeasurement("CC1(C)S[C@@H]2C(N3C(=O)[C@@H](c4ccccc4)NC3(C)C)C(=O)N2[C@H]1C(=O)O (stereo not given in full)")
"1.03 (inactive)"
>>> observedmeasurement("O=c1c(O)cc([C@H]2Oc3cc(O)cc(O)c3C[C@H]2O)cc2c([C@H]3Oc4cc(O)cc(O)c4C[C@H]3O)cc(O)c(O)c12")
"1.01 (inactive)"
>>> observedmeasurement("CCCCCC(O)C1C(=O)OC(C)C(O)/C=C/C=C/C=C/C=C/C=C(\\C)C(O)CC(O)CC(O)CC(O)CC(O)CC(O)CC1O (stereo not given)")
"1.01 (inactive)"
>>> observedmeasurement("O=C(O)c1ccccc1O")
"0.998 (inactive)"
>>> observedmeasurement("Cc1c(C(N)=O)cc([N+](=O)[O-])cc1[N+](=O)[O-]")
"0.98 (inactive)"
>>> observedmeasurement("N#Cc1c(Cl)cccc1Cl")
"1.01 (inactive)"
>>> observedmeasurement("COc1cc(C(=O)O)cc(OC)c1OC")
"1.03 (inactive)"
>>> observedmeasurement("NC(N)=Nc1ccc(Cl)cc1")
"0.996 (inactive)"
>>> observedmeasurement("O=C(CCCN1CCC(O)(c2ccc(Cl)cc2)CC1)c1ccc(F)cc1")
"0.978 (inactive)"
>>> observedmeasurement("NCCCCN")
"0.995 (inactive)"
>>> observedmeasurement("O=C(CCCN1CCC2(CC1)C(=O)NCN2c1ccccc1)c1ccc(F)cc1")
"0.994 (inactive)"
>>> observedmeasurement("CNC[C@H](O)c1cccc(O)c1")
"1.01 (inactive)"
>>> observedmeasurement("Nc1nc(/C(=C/CC(=O)O)C(=O)N[C@@H]2C(=O)N3C(C(=O)O)=CCS[C@H]23)cs1")
"0.995 (inactive)"
>>> observedmeasurement("C[C@H]1[C@H](C)CC[C@]2(C(=O)O)CC[C@]3(C)C(=CCC4[C@@]5(C)C[C@@H](O)[C@H](O)[C@@](C)(CO)C5[C@H](O)C[C@]43C)[C@H]12 (stereo not given in full)")
"0.939 (inactive)"
>>> observedmeasurement("CC(=O)[C@@]1(O)CCC2C3C=C(Cl)C4=CC(=O)[C@@H]5CC5[C@]4(C)C3CC[C@@]21C (stereo not given in full)")
"1 (inactive)"
